Value source: patent US10709709B2

Tested target: PRMT5/MEP50 protein complex (Homo sapiens (Human))
Experiment summary: PRMT5 biochemical assay (3H-SAM methylation of H4(1-21) peptide, filter plate scintillation)
Details: 10 nM PRMT5/MEP50 complex, 200 nM H4(1-21) peptide, 1 uM SAM, 25 minute incubation at room temperature
pIC50: −log10 of the molar value.
Lab note: anything with pIC50 at or over 8 counts as fulfilled; the rest go in not fulfilled.

Cc1ncnc2c1ccn2[C@@H]1C[C@H](Oc2nc(C(F)F)cc3c2CNCC3)[C@@H](O)[C@H]1O :: fulfilled
Nc1ncnc2c1c(F)cn2[C@@H]1C[C@H]([C@H](O)c2ccc(F)cc2)[C@@H](O)[C@H]1O :: not fulfilled
Nc1ncnc2c1ccn2[C@@H]1C[C@H]([C@@H](O)c2ccc(Cl)c(F)c2)[C@@H](O)[C@H]1O :: not fulfilled

-- ask Reported pIC50 reaches at least 8 for `Cc1ncnc2c1ccn2[C@@H]1C[C@H](Oc2cccc3c2CNCCO3)[C@@H](O)[C@H]1O` ?
-- reply fulfilled

-- ask Cool, now `Cc1ncnc2c1ccn2[C@@H]1C[C@H]([C@H](C)O)[C@@H](O)[C@H]1O`
-- reply not fulfilled

-- ask Cool, now Cc1cccc(CC(O)[C@H]2C[C@@H](n3ccc4c(C)ncnc43)[C@H](O)[C@@H]2O)n1 (stereo partly shown)
-- reply not fulfilled

* * *

Each item that follows carries a reported IC50.
Tested target: PRMT5/MEP50 protein complex (Homo sapiens (Human), UniProt O14744)
Sequence (O14744 other isoform, or with tags, fused parts or gaps): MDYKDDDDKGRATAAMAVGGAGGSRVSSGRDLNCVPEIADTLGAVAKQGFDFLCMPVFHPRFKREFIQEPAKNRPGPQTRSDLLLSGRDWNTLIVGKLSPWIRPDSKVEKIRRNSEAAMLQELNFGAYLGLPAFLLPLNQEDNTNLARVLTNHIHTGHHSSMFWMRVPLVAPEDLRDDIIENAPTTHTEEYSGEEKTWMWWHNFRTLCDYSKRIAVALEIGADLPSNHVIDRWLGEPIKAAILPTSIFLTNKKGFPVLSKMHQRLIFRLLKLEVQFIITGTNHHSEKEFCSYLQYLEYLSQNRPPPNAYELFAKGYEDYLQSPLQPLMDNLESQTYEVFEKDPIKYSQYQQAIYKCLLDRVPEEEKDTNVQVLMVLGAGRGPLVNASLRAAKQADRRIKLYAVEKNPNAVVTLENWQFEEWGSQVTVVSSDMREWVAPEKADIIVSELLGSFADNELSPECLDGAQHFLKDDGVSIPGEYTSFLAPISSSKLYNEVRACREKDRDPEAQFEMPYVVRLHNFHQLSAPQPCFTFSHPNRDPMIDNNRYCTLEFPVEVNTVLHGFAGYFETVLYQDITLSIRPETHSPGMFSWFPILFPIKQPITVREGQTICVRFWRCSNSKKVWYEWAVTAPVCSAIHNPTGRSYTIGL
Sequence (Q9BQA1 whole entry partner): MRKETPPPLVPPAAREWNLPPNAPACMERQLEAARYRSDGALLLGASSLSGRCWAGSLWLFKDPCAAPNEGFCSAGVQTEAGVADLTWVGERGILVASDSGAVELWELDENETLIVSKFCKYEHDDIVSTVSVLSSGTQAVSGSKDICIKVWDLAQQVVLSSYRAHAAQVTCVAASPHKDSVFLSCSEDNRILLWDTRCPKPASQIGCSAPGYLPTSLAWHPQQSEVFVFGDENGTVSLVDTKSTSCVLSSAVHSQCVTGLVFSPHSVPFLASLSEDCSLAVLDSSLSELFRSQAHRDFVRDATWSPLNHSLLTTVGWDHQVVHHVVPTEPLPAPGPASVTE
Experiment summary: PRMT5 biochemical assay (3H-SAM methylation of H4(1-21) peptide, filter plate scintillation)
Details: 10 nM PRMT5/MEP50 complex, 200 nM H4(1-21) peptide, 1 uM SAM, 25 minute incubation at room temperature
Quick note: give the figure in nM, leave out the unit.

Cc1ncc2c(F)cn([C@@H]3C[C@H](Oc4cc(Cl)cc5c4CNCC5)[C@@H](O)[C@H]3O)c2n1 :: 5
Cc1nc(N)nc2c1ccn2[C@@H]1C[C@H]([C@H](O)c2ccc(F)c(F)c2)[C@@H](O)[C@H]1O :: 5
Cc1ncnc2c1ccn2[C@@H]1C[C@H](Oc2cc(-c3cn[nH]c3)c(F)c3c2CNCC3)[C@@H](O)[C@H]1O :: 3
CCOc1cc(O[C@H]2C[C@@H](n3ccc4c(C)ncnc43)[C@H](O)[C@@H]2O)c2c(c1F)CCNC2 :: 91
Cc1ncnc2c1ccn2[C@@H]1C[C@H](Oc2cc(C(F)(F)F)cc3c2CNCC3)[C@@H](O)[C@H]1O :: 2
Cc1ncnc2c1c(F)cn2[C@@H]1C[C@H](Oc2cccc3c2CNCC3)[C@@H](O)[C@H]1O :: 5

-- ask Look up IC50 for this molecule: `Cc1ncnc2c1ccn2[C@@H]1C[C@H](Oc2ccccc2CN)[C@@H](O)[C@H]1O`
-- reply 25

* * *

Tested target: PRMT5/MEP50 protein complex (Homo sapiens (Human))
Experiment summary: PRMT5 biochemical assay (3H-SAM methylation of H4(1-21) peptide, filter plate scintillation)
Details: 10 nM PRMT5/MEP50 complex, 200 nM H4(1-21) peptide, 1 uM SAM, 25 minute incubation at room temperature
Experimental readout: pIC50
# pIC50: negative log10 of molar concentration; output just the value

Look over these answered cases.
Cc1ncnc2c1ccn2[C@@H]1C[C@H]([C@@H](CN)c2ccc(F)cc2)[C@@H](O)[C@H]1O [Example 52] :: 6.04
Cc1ncnc2c1ccn2[C@@H]1C[C@H](Oc2cc(C(F)F)c(F)c3c2CNCC3)[C@@H](O)[C@H]1O [Example 190] :: 9.00

-- ask Look up pIC50 for this molecule: Cc1ncnc2c1ccn2[C@@H]1C[C@H]([C@H](CN)c2ccc(F)cc2)[C@@H](O)[C@H]1O [Example 51]
-- reply 6.17

-- ask Cool, now Cc1ncnc2c1ccn2[C@@H]1C[C@H](Oc2ccc(Cl)c3c2CNCC3)[C@@H](O)[C@H]1O [Example 86]
-- reply 8.40

-- ask Cool, now Cc1ncnc2c1ccn2[C@@H]1C[C@H](Oc2cc(C#N)cc3c2CNCC3)[C@@H](O)[C@H]1O [Example 91]
-- reply 9.00
